Hello, the source for this data is the RNAGym collection of RNA variant scans (doi:10.7554/elife.80360), in case you need it.

B1: CPEB3 Ribozyme (parent)
chain: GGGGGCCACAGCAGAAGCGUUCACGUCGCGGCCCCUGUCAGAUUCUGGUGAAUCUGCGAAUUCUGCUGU

Variants of: B1
Assay: self-cleavage, relative activity (ratio to wild type); higher = more cleavage; co-transcriptional
Experimental endpoint: self-cleavage
Format: numeric value only, no unit, no commentary.

Variant notation | Observed
C12G C27U | 0.0756
G5U G17A | 0.082
G47U C66G | 0.914

In the following, a different variant is considered.
What does the record list as self-cleavage for A52U U64C ?
0.741
